The following molecules are shown together with reported cytotoxicity at 70.5 h values.
Experiment: Human HepG2 cell viability assay in 384 well format
Type: toxicity, cell-based
Parameters: dose 125 nL, time 70.5 hour; concentration not given beside the values
Settings: HepG2 cells, read-out: Inhibition
# output: bare number, implied unit %

See these solved cases before continuing.
Cn1ccnc1CN1CCN(Cc2noc(C3CC3)n2)CC1: -12.6
CCN1C[C@H]2[C@@H](C1)N(C(=O)Cc1ccsc1)CC[C@H]2OC: -7.9
COCCN1CCC(c2ncc(C(=O)N3CCOCC3)c(C)n2)CC1: -1.72
Cc1nc(CN2CCCN(C(=O)c3cnccn3)CC2)cs1: -3.13
CCOCCN1CCN(CC(O)c2ccc(F)cc2)CC1 (configuration not stated): -6.89
c1cc(CN2CCC(c3nnc4n3CCCCC4)CC2)c2nonc2c1: 12.2
O=C(c1ccco1)N1C(CO)[C@]2(O)CC[C@H]1CC2 (some centres not stated): -3.21
CCc1csc(C2CCCN(C(=O)COc3cc(C)on3)C2)n1 (configuration not stated): -8.8

**Query** Identify measured cytotoxicity at 70.5 h corresponding to CCc1nn(-c2cc(Oc3ccccc3)nc(C)n2)c(N)c1C#N
**Result** 2.22

**Query** Identify measured cytotoxicity at 70.5 h corresponding to O=C(Nc1ccccc1)NC1CCN(C2CCOC2)CC1 (configuration not stated)
**Result** 5.7

**Query** Identify measured cytotoxicity at 70.5 h corresponding to N#Cc1cc(NC(=O)c2ccncc2)ccc1N1CCC(O)CC1
**Result** -3.68

**Query** Identify measured cytotoxicity at 70.5 h corresponding to CCn1c(C2CCCN(Cc3cc(C)cc(C)c3)C2)nn(C)c1=O (configuration not stated)
**Result** 3.73
